pEC50 values, listed per item
Target: T1, human αvβ6 integrin on CHOK1 stable cells (human, UniProt P06756 31-1048; P18564 22-788)
T1 construct: whole, on cells; Stably expressed on CHOK1 cells; also called hαvβ6; CHOK1-human αvβ6
Experiment: cell-based ELISA (CELISA), CHOK1 cells expressing the integrin
Excerpt: Integrin cell-based ELISA (CELISA) assay. Cell binding EC₅₀ data for antibodies were obtained for CHOK1 parental cells and CHOK1 cells expressing human or mouse αvβ1, αvβ6, and αvβ1 integrins by cell-based ELISA. […] Absorbance was read on a TECAN plate reader at 450 nm, with a 620 nm reference wavelength.
Answer as the number alone; pEC50 is minus log10 of concentration in mol/L.

Sample records with pEC50:
{"BINDER": "Ab-31 (antibody, V domains shown) VH: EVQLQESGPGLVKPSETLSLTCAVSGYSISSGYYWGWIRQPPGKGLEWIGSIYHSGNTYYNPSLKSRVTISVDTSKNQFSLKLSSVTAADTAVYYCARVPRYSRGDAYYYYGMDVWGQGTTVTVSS VL: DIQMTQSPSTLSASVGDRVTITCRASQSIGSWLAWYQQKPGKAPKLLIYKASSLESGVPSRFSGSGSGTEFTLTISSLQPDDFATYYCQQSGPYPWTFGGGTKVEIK", "pEC50": 9.32}
{"BINDER": "Ab-32 (antibody, V domains shown) VH: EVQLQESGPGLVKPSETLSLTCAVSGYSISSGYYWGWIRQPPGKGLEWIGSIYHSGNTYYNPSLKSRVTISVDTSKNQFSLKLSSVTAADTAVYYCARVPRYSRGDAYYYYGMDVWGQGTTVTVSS VL: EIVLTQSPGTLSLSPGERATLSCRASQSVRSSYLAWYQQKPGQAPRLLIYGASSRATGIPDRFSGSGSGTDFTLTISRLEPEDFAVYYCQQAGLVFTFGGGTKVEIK", "pEC50": 9.36}
{"BINDER": "Ab-30 (antibody, V domains shown) VH: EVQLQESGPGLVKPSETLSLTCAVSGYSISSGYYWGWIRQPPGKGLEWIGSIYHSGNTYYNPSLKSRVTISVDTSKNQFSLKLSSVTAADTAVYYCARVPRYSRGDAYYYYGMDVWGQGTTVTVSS VL: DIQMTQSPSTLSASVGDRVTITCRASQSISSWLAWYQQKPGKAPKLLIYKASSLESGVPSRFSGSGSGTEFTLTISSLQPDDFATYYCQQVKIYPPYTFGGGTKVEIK", "pEC50": 9.49}

Consider the record given below.
Request: Can you share its pEC50? I mean this binder: Ab-33 (antibody, V domains shown) VH: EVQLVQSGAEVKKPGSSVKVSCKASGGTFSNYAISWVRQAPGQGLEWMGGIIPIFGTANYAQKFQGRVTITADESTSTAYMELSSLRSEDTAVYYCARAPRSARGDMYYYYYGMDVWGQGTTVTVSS VL: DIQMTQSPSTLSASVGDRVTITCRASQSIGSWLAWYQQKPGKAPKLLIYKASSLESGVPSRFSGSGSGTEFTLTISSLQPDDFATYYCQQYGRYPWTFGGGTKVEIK
Response: 9.38
